ASSAYED_TARGET: UniProt:P14902
Sequence (P14902 whole entry): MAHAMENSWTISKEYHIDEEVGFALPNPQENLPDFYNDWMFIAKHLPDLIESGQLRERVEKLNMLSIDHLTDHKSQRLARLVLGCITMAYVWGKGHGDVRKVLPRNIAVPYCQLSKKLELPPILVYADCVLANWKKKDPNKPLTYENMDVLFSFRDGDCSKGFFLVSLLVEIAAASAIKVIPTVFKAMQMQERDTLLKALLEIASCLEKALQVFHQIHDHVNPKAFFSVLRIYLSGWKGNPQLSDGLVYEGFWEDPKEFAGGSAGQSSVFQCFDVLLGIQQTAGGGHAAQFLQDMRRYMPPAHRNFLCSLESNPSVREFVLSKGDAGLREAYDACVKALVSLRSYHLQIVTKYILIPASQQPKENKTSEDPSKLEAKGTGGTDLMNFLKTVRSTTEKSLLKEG
MEASUREMENT_NOTES: IDO1 Cellular Assay in HeLa Cells Stimulated with IFNγ (B)
Type: cell-based
Design: endogenous in cells; host or cells: HeLa cells stimulated with IFNγ
RUN_CONDITIONS: about 48 h, first value of cell, read-out: IDO hela (B) cell IC50
Description: HeLa cells were cultured in complete HeLa culture medium (90% EMEM, 10% heat-inactivated fetal bovine serum) and expanded to about 1×10^9 cells. […] Frozen HeLa cells were thawed and transferred into HeLa assay medium (99% complete HeLa culture medium, 1% Pen/Strep) with 20 mL medium/vial of cells. […] The cells were then counted and adjusted to a density of 2×10^5 cells/mL in HeLa assay medium. […]
OBSERVATION_TYPE: IC50 (µM)

[
  {
    "MOLECULE": "O=C1NC(=O)C2(CCN(c3cc(Cl)cc4[nH]ncc34)CC2)N1",
    "ASSAYED_TARGET": "UniProt:P14902",
    "DISPLAY_UNIT": "µM",
    "REPORTED": 0.097
  },
  {
    "MOLECULE": "C[C@@H]1CN(c2cc(Br)cc3[nH]ncc23)CC[C@]12NC(=O)NC2=O (single isomer, unassigned)",
    "ASSAYED_TARGET": "UniProt:P14902",
    "DISPLAY_UNIT": "µM",
    "REPORTED": 0.077
  }
]
